Species: Homo sapiens
Experiment: Selectivity ratio of Ki for human adenosine A2A receptor to Ki for human adenosine A3 receptor
experimentalReadout: Ratio Ki

Consider the worked cases shown below.
In [3]: df
Out[3]:
                                        smi  resultvalue
0  CCOC(=O)c1nc(NC(=O)c2ccc(C)cc2)nc2nn(CC(C)(C)C)cc12        > 111
1  CC(C)n1cc2c(Cl)nc(NC(=O)c3ccc(F)cc3)nc2n1       > 0.02
2  CC(C)(C)Cn1cc2c(Cl)nc(NC(=O)c3ccc(C(F)(F)F)cc3)nc2n1         > 15
3             CC(C)(C)Cn1cc2c(Cl)nc(N)nc2n1        > 0.6

Would you mind telling me what Ratio Ki value was observed for `Cn1cc2c(Cl)nc(N)nc2n1` ?
> 0.09
